Data provenance is paper PMC10892093.

# Test system: human liver microsomes (HLM)
# Test Method Notes: Inhibition of R- and S-oxazepam glucuronidation in human liver microsomes
# Setup Conditions: read-out: IC50,u, R-Oxazepam Glucuronide, IC50 corrected with fu,inc
Measurement Kind: IC50

I'd like to know its IC50. The compound in question is CCCCCc1cc(O)c2c(c1)OC(C)(C)[C@@H]1CCC(C)=C[C@@H]21 [THC, Δ^9-tetrahydrocannabinol]
1600 nM

* * *

# Test System: human liver microsomes (HLM)
# Test Method Notes: Inhibition of R- and S-oxazepam glucuronidation in human liver microsomes
# Setup Conditions: read-out: Ki, R-Oxazepam Glucuronide, generated from IC50 assuming competitive inhibition
Measurement Kind: Ki (µM)
Numeric answer only, unit µM assumed.

Entry C=C(C)[C@@H]1CCC(C)=C[C@H]1c1c(O)cc(CCCCC)cc1O [CBD, cannabidiol] : reported Ki = ?
16

Given the entry CCCCCc1cc(O)c2c(c1)OC(C)(C)[C@@H]1CCC(C)=C[C@@H]21 [THC, Δ^9-tetrahydrocannabinol] , report its measured Ki.
33

* * *

# Tested on: UGTs (R-oxazepam glucuronidation in HLM)
# Test Method Notes: Inhibition of R- and S-oxazepam glucuronidation in human liver microsomes
# Setup Conditions: human, human liver microsomes, pH 7.4, IC50,u, R-Oxazepam Glucuronide, IC50 corrected with fu,inc
Measurement Kind: IC50 at 2 h (nM)
Your answer is read as nM, so omit the unit and give the number.

Record request: IC50 at 2 h value, item `C=C(C)[C@@H]1CCC(C)=C[C@H]1c1c(O)cc(CCCCC)cc1O`
840

* * *

# Test System: UGT2B15 (Homo sapiens)
# Construct: expressed in transfected cells; cell homogenate
# Sequence (P54855 24-530): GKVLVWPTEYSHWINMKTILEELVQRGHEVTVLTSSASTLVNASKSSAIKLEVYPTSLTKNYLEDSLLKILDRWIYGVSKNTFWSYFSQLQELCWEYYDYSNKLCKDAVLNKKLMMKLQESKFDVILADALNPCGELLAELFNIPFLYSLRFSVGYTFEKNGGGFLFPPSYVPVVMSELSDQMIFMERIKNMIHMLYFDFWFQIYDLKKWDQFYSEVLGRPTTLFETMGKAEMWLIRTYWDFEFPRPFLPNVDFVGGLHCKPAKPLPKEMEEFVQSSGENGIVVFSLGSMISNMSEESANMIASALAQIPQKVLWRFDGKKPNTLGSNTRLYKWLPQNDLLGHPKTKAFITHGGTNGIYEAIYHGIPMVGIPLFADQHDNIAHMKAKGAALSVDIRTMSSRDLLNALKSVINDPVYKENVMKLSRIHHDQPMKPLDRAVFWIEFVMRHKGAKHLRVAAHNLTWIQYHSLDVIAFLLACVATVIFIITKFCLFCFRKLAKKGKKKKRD
# Test Method Notes: Inhibition of S-oxazepam glucuronidation in rUGT2B15 homogenate/microsomes (UGT-overexpressing HEK293)
# Type: biochemical
# Setup Conditions: human, pH 7.4; rUGT2B15 microsomes, 10 µM cannabinoid; range over the four cannabinoids; read-out: Inhibition of S-oxazepam glucuronide formation
Measurement Kind: inhibition at 2 h, 10 µM

// inhibition at 2 h, 10 µM lookup, key: C=C(C)[C@@H]1CCC(C)=C[C@H]1c1c(O)cc(CCCCC)cc1O [CBD, cannabidiol]
40 to 66%

* * *

# Test system: UGTs (R-oxazepam glucuronidation in HKM)
# Test Method Notes: Inhibition of R- and S-oxazepam glucuronidation in human kidney microsomes
# Setup Conditions: human, human kidney microsomes, pH 7.4, IC50, R-Oxazepam Glucuronide
Measurement Kind: IC50 at 2 h (µM)
The answer is to be given in µM; state only the numeric part.

What measured IC50 at 2 h is associated with C=C(C)[C@@H]1CCC(C)=C[C@H]1c1c(O)cc(CCCCC)cc1O [CBD, cannabidiol] on UGTs (R-oxazepam glucuronidation in HKM)?
5.9

* * *

# Tested on: human liver microsomes (HLM)
# Test Method Notes: Inhibition of R- and S-oxazepam glucuronidation in human liver microsomes
# Setup Conditions: read-out: IC50, oxazepam glucuronidation (marginal or no inhibition)
Measurement Kind: IC50

Entry under review: CCCCCc1cc(O)c2c(c1)OC(C)(C)[C@@H]1CCC(C(=O)O)=C[C@@H]21 [11-COOH-THC] . Reported IC50?
> 100 µM

* * *

# Test system: human kidney microsomes (HKM)
# Test Method Notes: Inhibition of R- and S-oxazepam glucuronidation in human kidney microsomes
# Setup Conditions: read-out: IC50, S-Oxazepam Glucuronide
Measurement Kind: IC50

I would be grateful if you could share the reported IC50 for CCCCCc1cc(O)c2c(c1)OC(C)(C)[C@@H]1CCC(C)=C[C@@H]21 [THC, Δ^9-tetrahydrocannabinol] .
> 100 µM
